Where do the numbers come from? From patent US20080027035A1.

study_target: DPP-IV (Homo sapiens, UniProt P27487)
Construct: Soluble human DPP-IV lacking the transmembrane anchor (Gly31-Pro766); Pre-Pro-alpha-mating factor leader (secretion signal) (N, cleaved yes)
Sequence (P27487 31-766): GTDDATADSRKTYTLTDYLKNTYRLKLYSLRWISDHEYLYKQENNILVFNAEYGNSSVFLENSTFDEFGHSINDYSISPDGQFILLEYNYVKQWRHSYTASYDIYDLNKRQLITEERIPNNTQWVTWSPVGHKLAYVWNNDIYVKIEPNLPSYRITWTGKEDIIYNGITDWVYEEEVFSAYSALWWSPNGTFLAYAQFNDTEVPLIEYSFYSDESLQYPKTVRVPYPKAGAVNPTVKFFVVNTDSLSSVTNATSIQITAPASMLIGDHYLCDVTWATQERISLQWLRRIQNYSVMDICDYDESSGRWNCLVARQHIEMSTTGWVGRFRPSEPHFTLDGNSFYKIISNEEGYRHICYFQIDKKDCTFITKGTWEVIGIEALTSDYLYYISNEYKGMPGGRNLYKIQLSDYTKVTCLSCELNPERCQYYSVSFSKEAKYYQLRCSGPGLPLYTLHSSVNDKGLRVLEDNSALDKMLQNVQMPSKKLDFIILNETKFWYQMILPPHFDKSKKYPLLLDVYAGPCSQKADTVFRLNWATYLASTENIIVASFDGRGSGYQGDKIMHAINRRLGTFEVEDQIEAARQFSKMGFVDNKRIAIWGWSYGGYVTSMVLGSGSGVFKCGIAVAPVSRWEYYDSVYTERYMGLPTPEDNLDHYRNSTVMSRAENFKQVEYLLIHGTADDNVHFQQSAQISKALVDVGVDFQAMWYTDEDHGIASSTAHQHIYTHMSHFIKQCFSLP
assay_remarks: Inhibition of DPP-IV peptidase activity, continuous fluorimetric assay (Gly-Pro-AMC cleavage)
assay_context: 16 μM Gly-Pro-AMC, pH 7.4, 25° C., 1% DMSO
Would you mind telling me the reported IC50 of each entry?

GET /values?readout=IC50&system=DPP-IV (Homo sapiens, UniProt P27487)&item= N[C@@H](CC(=O)N1CCC[C@H]1CNc1nc(-c2cccc(F)c2)no1)Cc1ccccc1F
1000 to 2000 nM

Now this one: COc1ccc(S(=O)(=O)NC[C@@H]2CCCN2C(=O)C[C@H](N)Cc2ccccc2F)cc1OC
< 100 nM

Please answer likewise for N#Cc1ccc(NC[C@@H]2CCCN2C(=O)C[C@H](N)Cc2ccccc2F)nc1
< 100 nM

And what about the compound N[C@@H](CC(=O)N1CCC[C@H]1CNc1nc(-c2ccccn2)no1)Cc1ccccc1F ?
< 100 nM

Next compound up: N[C@@H](CC(=O)N1CCCC[C@H]1CNC(=O)c1ccccc1)Cc1ccccc1F
101 to 1000 nM

Another compound to check: N[C@@H](CC(=O)N1CCC[C@H]1COc1ccccn1)Cc1ccccc1F
< 100 nM

Please answer likewise for N[C@@H](CC(=O)N1CCC[C@H]1CNS(=O)(=O)c1cc(Cl)ccc1Cl)Cc1ccccc1F
< 100 nM

Subsequent entry: N[C@@H](CC(=O)N1CCC[C@H]1CNC(=O)c1cccc(F)c1)Cc1ccccc1F
< 100 nM

* * *

Provide the reported pIC50 of each item.
study_target: DPP-IV (Homo sapiens)
Construct: Soluble human DPP-IV lacking the transmembrane anchor (Gly31-Pro766); Pre-Pro-alpha-mating factor leader (secretion signal) (N, cleaved yes)
assay_remarks: Inhibition of DPP-IV peptidase activity, continuous fluorimetric assay (Gly-Pro-AMC cleavage)
assay_context: 16 μM Gly-Pro-AMC, pH 7.4, 25° C., 1% DMSO
pIC50: −log10 of the molar value.

Data request, read-out pIC50, for N[C@@H](CC(=O)N1CCC[C@H]1COCc1ccccc1)Cc1ccccc1F
6.00 to 7.00

Item: N[C@@H](CC(=O)N1CCC[C@H]1CNS(=O)(=O)c1ccc(Cl)cc1)Cc1ccccc1F
> 7.00

Here is the next compound: N[C@@H](CC(=O)N1CCC[C@H]1COc1ccc(F)cc1)Cc1ccccc1F
> 7.00

Okay, and N[C@@H](CC(=O)N1CCCC(CNC(=O)c2ccccc2)C1)Cc1ccccc1F (mixture of isomers) ?
6.00 to 7.00

Similarly, N[C@@H](CC(=O)N1CCC[C@H]1CNC(=O)c1cccnc1)Cc1ccccc1F ?
> 7.00

Here is the next compound: N[C@@H](CC(=O)N1CC(COc2ccccc2)C1)Cc1ccccc1F
5.70 to 6.00

Would you mind doing N[C@@H](CC(=O)N1CC(CNS(=O)(=O)c2ccccc2)C1)Cc1ccccc1F as well?
6.00 to 7.00

Try this compound too: N[C@@H](CC(=O)N1CCC[C@H]1CNc1cnccn1)Cc1ccccc1F
6.00 to 7.00

* * *

Would you mind telling me the reported IC50 of each entry?
study_target: DPP-IV (Homo sapiens)
Construct: Soluble human DPP-IV lacking the transmembrane anchor (Gly31-Pro766); Pre-Pro-alpha-mating factor leader (secretion signal) (N, cleaved yes)
assay_remarks: Inhibition of DPP-IV peptidase activity, continuous fluorimetric assay (Gly-Pro-AMC cleavage)
assay_context: 16 μM Gly-Pro-AMC, pH 7.4, 25° C., 1% DMSO

Returns the measured IC50 for the input compound. Input: N#Cc1cccc(C[C@@H](N)CC(=O)N2CCC[C@H]2CNC(=O)c2ccccc2)c1 [Example 47]
101 to 1000 nM

Also, N[C@@H](CC(=O)N1CCC[C@H]1CNC(=O)c1ccccc1F)Cc1ccccc1F [Example 55] please.
< 100 nM

Now try N[C@@H](CC(=O)N1CCC[C@H]1CNC(=O)c1ccccc1)Cc1ccccc1 [Example 49] .
101 to 1000 nM

Entry to check: N#Cc1ccc(OC[C@@H]2CCCN2C(=O)C[C@H](N)Cc2ccccc2F)cc1 [Example 34]
< 100 nM

* * *

Hi there, I'd appreciate the recorded pIC50 for every entry that follows.
study_target: DPP-IV (Homo sapiens, UniProt P27487)
Construct: Soluble human DPP-IV lacking the transmembrane anchor (Gly31-Pro766); Pre-Pro-alpha-mating factor leader (secretion signal) (N, cleaved yes)
assay_remarks: Inhibition of DPP-IV peptidase activity, continuous fluorimetric assay (Gly-Pro-AMC cleavage)
assay_context: 16 μM Gly-Pro-AMC, pH 7.4, 25° C., 1% DMSO
pIC50: −log10 of the molar value.

Data request, read-out pIC50, for N[C@@H](CC(=O)N1CCC[C@H]1COc1ccccc1)Cc1ccccc1F [Example 35]
> 7.00

Again, but for N#Cc1cccc(OC[C@@H]2CCCN2C(=O)C[C@H](N)Cc2ccccc2F)c1 [Example 36]
> 7.00

Lookup N[C@@H](CC(=O)N1CCC[C@H]1CNc1nc(-c2ccccc2)no1)Cc1ccccc1F [Example 100]
6.00 to 7.00

Same lookup for N[C@@H](CC(=O)N1CCC[C@H]1CNS(=O)(=O)c1ccc(F)cc1)Cc1ccccc1F [Example 84] , please.
> 7.00

How about this compound: N[C@@H](CC(=O)N1CCC[C@H]1CN1CCCC1)Cc1cccc(Cl)c1 [Example 67]
6.00 to 7.00

Here is the next compound: N#Cc1ccccc1OC[C@@H]1CCCN1C(=O)C[C@H](N)Cc1ccccc1F [Example 37]
> 7.00

Could you do the same for N[C@@H](CC(=O)N1CCC[C@H]1CNc1ccccc1)Cc1ccccc1F [Example 66] , please?
> 7.00

Now the compound N[C@@H](CC(=O)N1CCC[C@H]1CNC(=O)c1ccccc1)Cc1ccc(F)c(F)c1 [Example 50]
> 7.00

Here is the next compound: CS(=O)(=O)c1ccccc1C(=O)NC[C@@H]1CCCN1C(=O)C[C@H](N)Cc1ccccc1F [Example 62]
> 7.00

Could you do the same for N[C@@H](CC(=O)N1CCCC(CNS(=O)(=O)c2ccccc2)C1)Cc1ccccc1F (some centres unmarked) [Example 89] , please?
6.00 to 7.00

// next record N[C@@H](CC(=O)N1CCC[C@H]1CNC(=O)Nc1ccccc1)Cc1ccccc1F [Example 86]
> 7.00

Entry to check: CS(=O)(=O)NC[C@@H]1CCCN1C(=O)C[C@H](N)Cc1ccccc1F [Example 85]
> 7.00

Note, next up: COc1ccc(S(=O)(=O)NC[C@@H]2CCCN2C(=O)C[C@H](N)Cc2ccccc2F)cc1 [Example 80]
> 7.00

And then N[C@@H](CC(=O)N1CCC[C@H]1CNC(=O)c1ccccc1)Cc1ccccc1Cl [Example 48] , what is it?
> 7.00

N[C@@H](CC(=O)N1CC(COc2ccccn2)C1)Cc1ccccc1F [Example 93] ?
5.70 to 6.00

Try CS(=O)(=O)c1ccc(-c2noc(NC[C@@H]3CCCN3C(=O)C[C@H](N)Cc3ccccc3F)n2)cc1 [Example 104] next.
> 7.00

What about N[C@@H](CC(=O)N1CCC[C@H]1CNC(=O)c1ccncc1)Cc1ccccc1F [Example 60] ?
> 7.00
